Origin of measurements: patent US12378243B2

In this section, each of the compounds is paired with its reported IC50.
- systemUnderTest: KRAS G12V mutant (Homo sapiens, UniProt P01116, G12V)
- Sequence (P01116 1-188 isoform P01116-2 G12V): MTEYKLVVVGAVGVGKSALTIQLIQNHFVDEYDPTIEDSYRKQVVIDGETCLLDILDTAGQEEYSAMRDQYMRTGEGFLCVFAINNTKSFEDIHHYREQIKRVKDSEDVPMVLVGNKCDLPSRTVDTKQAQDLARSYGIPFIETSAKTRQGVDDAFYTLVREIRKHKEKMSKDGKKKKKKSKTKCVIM
- protocolNotes: GDP-GTP exchange assay, KRAS G12V
- testConditions: bodipy loaded KRAS G12V 2.5 nM; 3 hours incubation after adding GppNHp-SOS1 mixture; read-out: G12V_exchange

compound	systemUnderTest	IC50
CCOc1nc2c(F)c(-c3cc(O)cc(Cl)c3Cl)c(CCC#N)cc2c2c1cc(CN1CCN(C(C)C)CC1=O)n2[C@H]1[C@H]2CN[C@@H]1C2 [Example 16]	KRAS G12V mutant (Homo sapiens, UniProt P01116, G12V)	< 100 nM
COC(=O)N1CCC[C@@H]1c1cc2c(-c3ccc(CN(C)C)c(F)c3F)nc3c(F)c(-c4cccc(Cl)c4Cl)c(CCC#N)cc3c2n1[C@H]1[C@H]2CN[C@@H]1C2 [Example 73]	KRAS G12V mutant (Homo sapiens, UniProt P01116, G12V)	< 100 nM
CNC(=O)c1ccc(-c2nc3c(F)c(-c4cccc5ccc(F)cc45)c(CCC#N)cc3c3c2cc([C@@H](C)N2CCOCC2=O)n3[C@H]2[C@H]3CN[C@@H]2C3)cn1 [Example 45]	KRAS G12V mutant (Homo sapiens, UniProt P01116, G12V)	< 100 nM
Cc1nc2c(F)c(-c3cccc(Cl)c3Cl)c(CCC#N)cc2c2c1cc([C@H]1C[C@H]3C[C@H]3N1C(=O)C1(F)CC1)n2[C@H]1[C@H]2CN[C@@H]1C2 [Example 64]	KRAS G12V mutant (Homo sapiens, UniProt P01116, G12V)	100 to 1000 nM
C[C@H](Oc1nc2c(F)c(-c3csc4ccccc34)c(CCC#N)cc2c2c1cc(CN1CCCC1=O)n2[C@H]1[C@H]2CN[C@@H]1C2)[C@@H]1CCCN1C (single isomer, unassigned) [Example 9]	KRAS G12V mutant (Homo sapiens, UniProt P01116, G12V)	< 100 nM
COC(=O)N1C[C@@H](F)C[C@@H]1c1cc2c(-c3ccc(C(C)(C)O)nc3)nc3c(F)c(-c4cccc(Cl)c4Cl)c(CCC#N)cc3c2n1[C@H]1[C@H]2CN[C@@H]1C2 [Example 51]	KRAS G12V mutant (Homo sapiens, UniProt P01116, G12V)	< 100 nM
CC(O)c1nc2c(F)c(-c3cccc(Cl)c3Cl)c(CCC#N)cc2c2c1cc([C@H]1C[C@H]3C[C@H]3N1C(=O)C1(C)CC1)n2[C@H]1[C@H]2CN[C@@H]1C2 (some centres unmarked) [Example 62]	KRAS G12V mutant (Homo sapiens, UniProt P01116, G12V)	< 100 nM
Cc1cnc(-c2nc3c(F)c(-c4cc(O)cc5ccccc45)c(CCC#N)cc3c3c2cc(C)n3[C@H]2[C@H]3CN[C@@H]2C3)cn1 (single isomer, unassigned) [Example 14]	KRAS G12V mutant (Homo sapiens, UniProt P01116, G12V)	< 100 nM
Cc1nc2c(F)c(-c3cccc(Cl)c3Cl)c(CCC#N)cc2c2c1cc([C@H]1C[C@H]3C[C@H]3N1C(=O)C1CC1)n2[C@H]1[C@H]2CN[C@@H]1C2 [Example 49]	KRAS G12V mutant (Homo sapiens, UniProt P01116, G12V)	< 100 nM
CC(O)c1nc2c(F)c(-c3cccc(Cl)c3Cl)c(CCC#N)cc2c2c1cc([C@@H](C)NC(=O)C1(F)CCC1)n2[C@H]1[C@H]2CN[C@@H]1C2 (some centres unmarked) [Example 66]	KRAS G12V mutant (Homo sapiens, UniProt P01116, G12V)	< 100 nM
Cc1nc2c(F)c(-c3cccc4ccc(F)cc34)c(CCC#N)cc2c2c1cc(CN1CCN(C)CC1=O)n2[C@H]1[C@H]2CN[C@@H]1C2 [Example 15]	KRAS G12V mutant (Homo sapiens, UniProt P01116, G12V)	100 to 1000 nM
